Origin of values: patent US7229999B2

The following compounds are shown together with reported IC50 values.
target: human cannabis CB1 receptor (Homo sapiens, UniProt P21554); construct: expressed in transfected cells; host or cells: human embryonic kidney (HEK) cells, transient, Semliki Forest Virus system; assay: Affinity for cannabinoid CB1 receptors, [3H]-CP-55,940 radioligand binding on HEK cell membranes
Sequence (P21554 whole entry): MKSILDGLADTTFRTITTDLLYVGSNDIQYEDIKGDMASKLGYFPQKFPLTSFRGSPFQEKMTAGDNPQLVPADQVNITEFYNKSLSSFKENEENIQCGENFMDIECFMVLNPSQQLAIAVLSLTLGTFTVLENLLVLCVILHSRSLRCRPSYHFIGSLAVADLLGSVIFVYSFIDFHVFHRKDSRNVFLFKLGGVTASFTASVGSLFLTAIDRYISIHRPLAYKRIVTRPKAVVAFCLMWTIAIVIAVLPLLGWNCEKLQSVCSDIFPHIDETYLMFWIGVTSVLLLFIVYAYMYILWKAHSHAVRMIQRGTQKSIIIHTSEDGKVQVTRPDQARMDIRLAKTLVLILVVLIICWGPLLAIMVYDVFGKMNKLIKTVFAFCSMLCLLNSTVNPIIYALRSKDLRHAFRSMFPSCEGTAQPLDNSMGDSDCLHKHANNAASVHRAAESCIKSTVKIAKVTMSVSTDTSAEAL
result_type: IC50 (nM)

>  <mol>
O=C(N[C@@H]1CCCC[C@H]1O)c1cnc(OCC2CC2)c(-c2cc(C(F)(F)F)ccc2F)c1

>  <target_or_test_system>
human cannabis CB1 receptor (Homo sapiens, UniProt P21554)

>  <reading_unit>
nM

>  <recorded_number>
102

$$$$
>  <mol>
CCCCOc1ncc(C(=O)N[C@@H]2CCCC[C@H]2O)cc1-c1ccc(Cl)cc1

>  <target_or_test_system>
human cannabis CB1 receptor (Homo sapiens, UniProt P21554)

>  <reading_unit>
nM

>  <recorded_number>
39

$$$$

----------
biological target: human cannabis CB1 receptor (Homo sapiens, UniProt P21554); construct: expressed in transfected cells; host or cells: human embryonic kidney (HEK) cells, transient, Semliki Forest Virus system; test: Affinity for cannabinoid CB1 receptors, [3H]-CP-55,940 radioligand binding on HEK cell membranes; conditions: affinity for the CB1 receptor; read-out: IC50
pIC50: −log10 of the molar value.

>  <mol>
CCCCOc1ncc(C(=O)N[C@@H]2CCCC[C@H]2O)cc1-c1cc(C(F)(F)F)ccc1F

>  <target_or_test_system>
human cannabis CB1 receptor (Homo sapiens, UniProt P21554)

>  <pIC50>
6.73

$$$$
